All figures here come from ChEMBL document CHEMBL4261627.

Recorded inhibition, one value per entry.
Assay: Antioxidant activity assessed as DPPH-radical scavenging activity at 1 mM incubated for 30 mins under dark condition
Assay type: functional
measured-property: inhibition (%)

[[record]]
structure_smiles = "O=C1O[C@H]([C@@H](O)CO)C(O)=C1O"
units_label = "%"
numeric_readout = 84.6

[[record]]
structure_smiles = "O=C(/C=C/c1ccc(O)cc1)N1CCCC1"
units_label = "%"
numeric_readout = 3.51

[[record]]
structure_smiles = "O=C(/C=C/c1ccc(O)c(O)c1)N1CCCC1"
units_label = "%"
numeric_readout = 83.2

[[record]]
structure_smiles = "COc1cc(/C=C/C(=O)N2CCCCC2)ccc1O"
units_label = "%"
numeric_readout = 80.7

[[record]]
structure_smiles = "O=C(/C=C/c1ccc(O)cc1O)N1CCCCC1"
units_label = "%"
numeric_readout = 30.7

[[record]]
structure_smiles = "COc1cc(/C=C/C(=O)N2CCCC2)ccc1O"
units_label = "%"
numeric_readout = 82.1

[[record]]
structure_smiles = "COc1ccc(/C=C/C(=O)N2CCCC2)cc1O"
units_label = "%"
numeric_readout = 34.2

[[record]]
structure_smiles = "O=C(/C=C/c1ccc(O)cc1O)N1CCCC1"
units_label = "%"
numeric_readout = 22.3

[[record]]
structure_smiles = "O=C(/C=C/c1ccc(O)c(O)c1)N1CCCCC1"
units_label = "%"
numeric_readout = 82.8

[[record]]
structure_smiles = "O=C(/C=C/c1ccc(O)cc1)N1CCCCC1"
units_label = "%"
numeric_readout = 0.91

[[record]]
structure_smiles = "COc1ccc(/C=C/C(=O)N2CCCCC2)cc1O"
units_label = "%"
numeric_readout = 37.6

